Target: GST-ALK5 (Homo sapiens)
Sequence (P36897 34-503): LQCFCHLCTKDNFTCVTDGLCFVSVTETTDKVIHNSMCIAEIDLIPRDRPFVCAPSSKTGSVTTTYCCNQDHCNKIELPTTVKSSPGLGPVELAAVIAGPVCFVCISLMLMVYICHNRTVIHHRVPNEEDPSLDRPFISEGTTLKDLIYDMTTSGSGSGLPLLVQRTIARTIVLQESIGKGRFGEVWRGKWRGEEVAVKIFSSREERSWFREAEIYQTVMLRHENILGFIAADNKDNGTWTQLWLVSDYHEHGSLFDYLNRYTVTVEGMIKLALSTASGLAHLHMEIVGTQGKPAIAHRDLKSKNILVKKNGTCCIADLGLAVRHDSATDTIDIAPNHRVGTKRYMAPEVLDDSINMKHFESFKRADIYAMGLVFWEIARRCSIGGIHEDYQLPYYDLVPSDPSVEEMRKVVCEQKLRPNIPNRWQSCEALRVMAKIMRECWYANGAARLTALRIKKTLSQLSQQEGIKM
pIC50: −log10 of the molar value.
I'd appreciate it if you could supply pIC50 values for the items below.

# pIC50 lookup, item Cc1nn(-c2cc(-c3cc(F)ccc3F)nc3ncccc23)c2ccncc12 [compound 100]
> 7.00

# pIC50 lookup, item OCc1cnccc1Nc1cc(-c2cc(Cl)ccc2F)nc2ncccc12 [compound 20]
> 7.00

# pIC50 lookup, item CCOc1cc(Nc2cc(-c3cc(Cl)ccc3F)nc3ncccc23)ccn1 [compound 07]
6.00 to 7.00

# pIC50 lookup, item CN(C)c1cc(Nc2cc(-c3cc(F)ccc3F)nc3ncccc23)ncn1 [compound 137]
< 5.00

# pIC50 lookup, item Fc1ccc(Cl)cc1-c1cc(Nc2ccncc2)c2cccnc2n1 [compound 01]
> 7.00

# pIC50 lookup, item COCCOc1cnccc1Nc1cc(-c2cc(Cl)ccc2F)nc2ncccc12 [compound 15]
> 7.00

# pIC50 lookup, item O=C(CO)Nc1cc(Nc2cc(-c3cc(Cl)ccc3F)nc3ncccc23)ccn1 [compound 82]
> 7.00

# pIC50 lookup, item Fc1ccc(Cl)cc1-c1cc(Nc2ccncn2)c2cccnc2n1 [compound 05]
> 7.00

# pIC50 lookup, item Fc1ccc(C(F)(F)F)cc1-c1cc(Nc2ccncn2)c2cccnc2n1 [compound 21]
> 7.00

###

I'd appreciate it if you could supply IC50 values for the items below.

Lab note: need IC50 with GST-ALK5 (Homo sapiens) for entry CN(C)CCNC(=O)c1cnccc1Nc1cc(-c2cc(Cl)ccc2F)nc2ncccc12 [compound 72] , please look it up.
< 100 nM

Lab note: need IC50 with GST-ALK5 (Homo sapiens) for entry OCCOc1cnccc1Nc1cc(-c2cc(Cl)ccc2F)nc2ncccc12 [compound 09] , please look it up.
< 100 nM

Lab note: need IC50 with GST-ALK5 (Homo sapiens) for entry Fc1ccccc1-c1cc(Nc2ccncc2)c2cccnc2n1 [compound 10] , please look it up.
< 100 nM

Lab note: need IC50 with GST-ALK5 (Homo sapiens) for entry Clc1cccc(-c2cc(Nc3ccncc3)c3cccnc3n2)c1 [compound 11] , please look it up.
< 100 nM

Lab note: need IC50 with GST-ALK5 (Homo sapiens) for entry Cc1cccc(-c2cc(Nc3ccncc3CO)c3cccnc3n2)n1 [compound 81] , please look it up.
< 100 nM

Lab note: need IC50 with GST-ALK5 (Homo sapiens) for entry CN1CCC(COc2cnccc2Nc2cc(-c3cc(Cl)ccc3F)nc3ncccc23)CC1 [compound 47] , please look it up.
< 100 nM

Lab note: need IC50 with GST-ALK5 (Homo sapiens) for entry CC(C)(C)OC(=O)Nc1nccc(Nc2cc(-c3cc(Cl)ccc3F)nc3ncccc23)n1 [compound 51] , please look it up.
< 100 nM

Lab note: need IC50 with GST-ALK5 (Homo sapiens) for entry CC(=O)Nc1nccc(Nc2cc(-c3cc(Cl)ccc3F)nc3ncccc23)n1 [compound 98] , please look it up.
< 100 nM

Lab note: need IC50 with GST-ALK5 (Homo sapiens) for entry COC(=O)c1cc(Nc2cc(-c3cc(F)ccc3F)nc3ncccc23)ccn1 [compound 116] , please look it up.
1000 to 10000 nM

Lab note: need IC50 with GST-ALK5 (Homo sapiens) for entry Oc1nccc(Nc2cc(-c3cc(Cl)ccc3F)nc3ncccc23)n1 [compound 76] , please look it up.
100 to 1000 nM

Lab note: need IC50 with GST-ALK5 (Homo sapiens) for entry O=C(NCCN1CCCC1)c1cc(Nc2cc(-c3cc(F)ccc3F)nc3ncccc23)ccn1 [compound 122] , please look it up.
1000 to 10000 nM

Lab note: need IC50 with GST-ALK5 (Homo sapiens) for entry Fc1ccccc1-c1cc(-n2ccc3cncnc32)c2cccnc2n1 [compound 96] , please look it up.
100 to 1000 nM

Lab note: need IC50 with GST-ALK5 (Homo sapiens) for entry Cc1ccn(-c2cc(Nc3ccncc3)c3cccnc3n2)n1 [compound 28] , please look it up.
< 100 nM

Lab note: need IC50 with GST-ALK5 (Homo sapiens) for entry Fc1ccc(F)c(-c2cc(Nc3cc(Cl)ncn3)c3cccnc3n2)c1 [compound 103] , please look it up.
100 to 1000 nM

Lab note: need IC50 with GST-ALK5 (Homo sapiens) for entry Nc1cnccc1Nc1cc(-c2cc(Cl)ccc2F)nc2ncccc12 [compound 22] , please look it up.
< 100 nM

Lab note: need IC50 with GST-ALK5 (Homo sapiens) for entry CN1CCC(NC(=O)c2cnccc2Nc2cc(-c3cc(F)ccc3F)nc3ncccc23)CC1 [compound 113] , please look it up.
< 100 nM

Lab note: need IC50 with GST-ALK5 (Homo sapiens) for entry Nc1cc(Nc2cc(-c3cc(Cl)ccc3F)nc3ncccc23)ncn1 [compound 02] , please look it up.
< 100 nM

Lab note: need IC50 with GST-ALK5 (Homo sapiens) for entry Fc1ccc(F)c(-c2cc(Nc3ccnc(Cl)c3)c3cccnc3n2)c1 [compound 125] , please look it up.
< 100 nM
